test system: Streptococcus equinus; experiment: In vitro minimum inhibitory concentration against Streptococcus bovis A5169 using brain-heart infusion agar; format: functional
Recorded measurements of MIC, one per entry
Only the number, expressed in µg/mL, is required.

Below: 4 compounds and their reported MIC.
O=C(O)c1cn(C2CC2)c2c(F)c(N3CCC(=NO)CC3)c(F)cc2c1=O
0.39
O=C1CCN(c2nc3c(cc2F)c(=O)c(C(=O)O)cn3-c2ccc(F)cc2F)CC1
3.1
CO/N=C1\CCN(c2nc3c(cc2F)c(=O)c(C(=O)O)cn3-c2ccc(F)cc2F)C1
1.56
NC1CCN(c2cc3c(cc2F)c(=O)c(C(=O)O)cn3-c2ccc(F)cc2F)CC1
1.56

Now, please, on to the next compound.
What measured MIC goes with CON=C1CCN(c2nc3c(cc2F)c(=O)c(C(=O)O)cn3-c2ccc(F)cc2F)CC1 ?
6.2

* * *

tested on: Staphylococcus aureus; assay: In vivo antibacterial activity against Staphylococcus aureus NCTC 10649 infected mouse by oral administration; assay type: functional
RECORDED_METRIC: ED50 (mg/kg)
Report only the number, with the unit mg/kg understood.

O=C(O)c1cn(C2CC2)c2c(F)c(N3CCC(=NO)CC3)c(F)cc2c1=O
3

Let us move to another entry and its ED50.
Data request, read-out ED50, for O=C(O)c1cn(-c2ccc(F)cc2F)c2cc(N3CCC(=NO)CC3)c(F)cc2c1=O
6

* * *

system: Acinetobacter; assay: In vitro minimum inhibitory concentration against Acinetobacter CMX 669 using brain-heart infusion agar; format: functional
RECORDED_METRIC: MIC (µg/mL)
Respond numerically; units are µg/mL and should not be typed.

O=C1CCN(c2cc3c(cc2F)c(=O)c(C(=O)O)cn3C2CC2)C1
50
CON=C1CCN(c2cc3c(cc2F)c(=O)c(C(=O)O)cn3-c2ccc(F)cc2F)CC1
6.2
CO/N=C1/CCN(c2cc3c(cc2F)c(=O)c(C(=O)O)cn3-c2ccc(F)cc2F)C1
0.78
O=C1CCN(c2c(F)cc3c(=O)c(C(=O)O)cn(C4CC4)c3c2F)C1
3.1

Continue with the next molecule.
Acinetobacter / MIC / CON=C1CCN(c2c(F)cc3c(=O)c(C(=O)O)cn(C4CC4)c3c2F)CC1 : value?
3.1

* * *

Measured log10 MIC by item
system: Acinetobacter; assay: In vitro minimum inhibitory concentration against Acinetobacter CMX 669 using brain-heart infusion agar; assay type: functional
Units before log transform: µg/mL; reported quantity: MIC; transform: log10.

// known answers, use as guide
O=C1CCN(c2nc3c(cc2F)c(=O)c(C(=O)O)cn3-c2ccc(F)cc2F)CC1
0.19
NC1CCN(c2nc3c(cc2F)c(=O)c(C(=O)O)cn3-c2ccc(F)cc2F)C1 (centres undefined)
-1.00
O=C(O)c1cn(C2CC2)c2nc(N3CC/C(=N\O)C3)c(F)cc2c1=O
-0.70
O=C(O)c1cn(C2CC2)c2c(F)c(N3CC/C(=N\O)C3)c(F)cc2c1=O
-0.70
O=C(O)c1cn(-c2ccc(F)cc2F)c2cc(N3CCC(=NO)CC3)c(F)cc2c1=O
0.19
O=C(O)c1cn(-c2ccc(F)cc2F)c2nc(N3CCC(=NO)CC3)c(F)cc2c1=O
0.49

Fill in the blank: the reported log10 MIC of NC1CCN(c2cc3c(cc2F)c(=O)c(C(=O)O)cn3-c2ccc(F)cc2F)CC1 is ____.
-0.11

Moving on to the next compound: O=C1CCN(c2cc3c(cc2F)c(=O)c(C(=O)O)cn3-c2ccc(F)cc2F)C1
1.10

// repeat for O=C(O)c1cn(C2CC2)c2c(F)c(N3CCC(=NO)CC3)c(F)cc2c1=O and report
-0.41

# iterate: NC1CCN(c2nc3c(cc2F)c(=O)c(C(=O)O)cn3C2CC2)C1 (centres undefined)
-1.00

Another compound: CO/N=C1\CCN(c2nc3c(cc2F)c(=O)c(C(=O)O)cn3-c2ccc(F)cc2F)C1
0.19

Now the same for CO/N=C1\CCN(c2nc3c(cc2F)c(=O)c(C(=O)O)cn3C2CC2)C1
-0.41

Query O=C(O)c1cn(-c2ccc(F)cc2F)c2cc(N3CC/C(=N/O)C3)c(F)cc2c1=O next
-0.41

Next compound up: CON=C1CCN(c2nc3c(cc2F)c(=O)c(C(=O)O)cn3-c2ccc(F)cc2F)CC1
1.10

* * *

system: Staphylococcus aureus; assay: In vivo antibacterial activity against Staphylococcus aureus NCTC 10649 infected mouse by oral administration; type: functional
RECORDED_METRIC: ED50

Value lookup for ED50; key = CO/N=C1\CCN(c2nc3c(cc2F)c(=O)c(C(=O)O)cn3-c2ccc(F)cc2F)C1
> 12 mg/kg

Also CON=C1CCN(c2nc3c(cc2F)c(=O)c(C(=O)O)cn3-c2ccc(F)cc2F)CC1 ?
> 12 mg/kg

Thanks! And CON=C1CCN(c2cc3c(cc2F)c(=O)c(C(=O)O)cn3-c2ccc(F)cc2F)CC1 ?
> 12 mg/kg
